# SYSTEM: mouse TAAR1 (Mus musculus)
# Sequence (Q923Y8 whole entry): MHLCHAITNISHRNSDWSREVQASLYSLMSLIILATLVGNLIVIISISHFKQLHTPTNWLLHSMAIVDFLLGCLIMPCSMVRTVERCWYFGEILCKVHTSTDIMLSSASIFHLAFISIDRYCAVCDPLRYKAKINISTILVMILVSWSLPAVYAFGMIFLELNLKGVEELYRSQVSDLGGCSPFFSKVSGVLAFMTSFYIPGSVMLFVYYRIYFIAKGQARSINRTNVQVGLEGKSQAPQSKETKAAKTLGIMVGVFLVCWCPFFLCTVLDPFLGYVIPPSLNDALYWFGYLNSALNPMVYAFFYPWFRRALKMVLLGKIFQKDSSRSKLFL
# TEST_METHOD_NOTES: Radioligand binding to TAAR1 in membranes of stably transfected HEK293 cells
PROPERTY_NAME: Kd (nM)
One number for each entry, in nM.

Problem: Please indicate recorded Kd of c1ccc2c(c1)CCCC2C1=NCCN1 (racemic) [reference compound] measured with mouse TAAR1 (Mus musculus).
Result: 60

* * *

These records show pKi for mouse TAAR1 (Mus musculus).
Give bare numbers, as −log10 of the molar value.

Worked examples follow.
>>> quantitative_readout("C[C@H]1OC(N)=N[C@H]1Cc1ccccc1 [Example 12a]")
6.76
>>> quantitative_readout("C[C@H]1OC(N)=N[C@H]1CCc1ccc(Cl)c(Cl)c1 [Example 15]")
9.22
>>> quantitative_readout("C[C@@H]1OC(N)=N[C@H]1CCCc1ccccc1 [Example 11a]")
8.24

Please look at the items below and tell me pKi for each one, in order.
1. C[C@@H]1OC(N)=N[C@@H]1CCc1ccccc1 [Example 7]
2. C[C@@H]1OC(N)=N[C@H]1CCc1ccc(Cl)c(Cl)c1 [Example 15a]
3. C[C@H]1OC(N)=N[C@H]1CCC1CCCCC1 [Example 13a]
4. CCC1OC(N)=N[C@H]1CCc1ccccc1 (some centres unmarked) [Example 9]
5. C[C@H]1OC(N)=N[C@H]1CCc1ccc(Cl)cc1 [Example 14]
6. C[C@H]1OC(N)=N[C@H]1CCc1ccccc1 [Example 8a]
7. C[C@H]1OC(N)=N[C@H]1CCCc1ccc(Cl)cc1 [Example 17]
8. C[C@@H]1OC(N)=N[C@H]1CCc1ccc(Cl)cc1 [Example 14a]

Result:
1. 7.56
2. 8.10
3. 7.28
4. 7.77
5. 9.15
6. 8.51
7. 9.52
8. 8.74

Please look at the items below and tell me pKi for each one, in order.
1. CC1OC(N)=N[C@H]1Cc1ccccc1 (single isomer, unassigned) [Example 12]
2. C[C@H]1OC(N)=N[C@H]1CCCc1ccccc1 [Example 11]
3. CC1OC(N)=N[C@H]1CCc1ccccc1 (single isomer, unassigned) [Example 8]

Result:
1: 6.80; 2: 9.05; 3: 8.77
